- target_or_test_system: T1, hK1 (human tissue kallikrein 1), recombinant (human, UniProt P06870 25-262)
- T1 construct: Expressed in P. pastoris from KLK1 cDNA and purified; enzymatically active; also called KLK1; Recombinant (Pichia) Kallikrein
- assay_summary: SPR
measurement_kind: kon (M⁻¹ s⁻¹)
All answers are understood in M⁻¹ s⁻¹, so give the number only.

Answered examples (4):
* M0138-C04 (Fab, V domains shown) VH: EVQLLESGGGLVQPGGSLRLSCAASGFTFSHYHMQWVRQAPGKGLEWVSGIRSSGGVTGYSDSVKGRFTISRDNSKNTLYLQMNSLRAEDTAVYYCAREVTMVRGVYYYYYGMDVWGQGTTVTVSS VL: AQYELTQPASVSGSPGQSITISCTGTSSDVGAYNYVSWYQHHPGKAPKLLIYDVSNRPSGISSRFSGSKSGNTASLTISGLQAEDEADYYCSSYTSSYTWVFGGGTKLTVLS | 171000
* M0135-B05 (Fab, V domains shown) VH: EVQLLESGGGLVQPGGSLRLSCAASGFTFSHYLMDWVRQAPGKGLEWVSVIYPSGGHTNYADSVKGRFTISRDNSKNTLYLQMNSLRAEDTAVYYCARVGVWYGMDVWGQGTTVTVSS VL: DIQMTQSPSSLSASVGDRVTITCRASQSISTYLNWYQQKPGKAPNLLIYAASSLQSGVPSRFSGSGSGTDFTLTVSSLQPEDFGTYYCQQYNSFPFSFGQGTRLEINR | 111000
* M0122-H04 (Fab, V domains shown) VH: EVQLLESGGGLVQPGGSLRLSCAASGFTFSRYAMAWVRQAPGKGLEWVSSIGSSGGVTKYADSVKGRFTISRDNSKNTLYLQMNSLRAEDTAVYYCAAPRGRYYYDSSGYYYGGVFDYWGQGTLVTVSS VL: AQYELTQPRSVSGSPGQSVTISCTGTSSDVGGFNYVSWYQQHPGKAPKLMIYDVSKRPSGVPDRFSGSKSGTTASLTISGLQADDEADYYCCSYTGNYTYVFGTGTKVTVLG | 68200
* M0106-E12 (Fab, V domains shown) VH: EVQLLESGGGLVQPGGSLRLSCAASGFTFSHYNMTWVRQAPGKGLEWVSSIWPSGGATRYADSVKGRFTISRDNSKNTLYLQMNSLRAEDTAVYYCARTSRFYGMDVWGQGTTVTVSS VL: DIQMTQSPGTLSLSPGERATLSCRPSQSVYSNYLAWYQQKPGQAPRLLIYGASTRATGIPDRFSGSASGTDFTLTISRLEPEDFAVYYCQQYGNSYTFGPGTKVDIKR | 1.23e+08

Then there is this binder:
Which value of kon has been reported for M0102-G12 (Fab, V domains shown) VH: EVQLLESGGGLVQPGGSLRLSCAASGFTFSKYKMVWVRQAPGKGLEWVSSIYPSGGITAYADSVKGRFTISRDNSKNTLYLQMNSLRAEDTAMYYCAKDITPGGGSGFRLPKNYYYYGMDVWGQGTTVTVSS VL: AQSELTQPPSASGTPGQRVTISCSGTLSNIGTNIVSWFQQLPGTAPKLLIYNDHRRPSGVPDRFSGSKSATSASLAISGLQSEDEADYYCAAWDDSLNGVVFGGGTKLTVLS in the records?
83700

From: patent US7329737
